# Assay summary: Solubility measurement of Pattern A in 17 solvent systems (gravimetric)
# Format: physicochemical
# Details: 4% DMA in PBS, 25 °C, aqueous buffer, thermodynamic from solid; part of the concentration relates to solvent constituents
# From the text: (R)-Trolox was produced from racemic Trolox via methylbenzyl amine double resolution in a manner similar to that described in Example 29 of U.S. Pat. No. 4,026,907. This (R)-Trolox was used to synthesize the (R)-2-hydroxy-2-methyl-4-(2,4,5-trimethyl-3,6-dioxocyclohexa-1,4-dienyl)butanamide starting material. […] Excess amount of solid was slurried in 17 solvent systems having diverse properties for minimum of 3 days. […] Table 9 presents the measured solubility data. […]
Observable: solubility (µg/mL)
Note: unit µg/mL is implicit; provide only the numeric part.

Exercise: What value of solubility has been recorded for this entry: CC1=C(C)C(=O)C(CC[C@@](C)(O)C(N)=O)=C(C)C1=O [Pattern A]
Solution: 10000
